Origin of values: ChEMBL document CHEMBL1138844

Listed here are molecules together with their documented pIC50.
target entity: Cyclin-dependent kinase 4/cyclin D1 (Homo sapiens)
assay name: Inhibition of Cyclin-dependent kinase 4-cyclin D1
Type: protein-complex assay
Please treat pIC50 as minus the base-10 logarithm of the molar concentration.

| molecule | pIC50 |
| --- | --- |
| CCc1nn(-c2c(Cl)cc(Cl)cc2Cl)c2nc(Cc3ccc(N)cc3)[nH]c(=O)c12 | 5.57 |
| CCc1nn(-c2c(Cl)cc(Cl)cc2Cl)c2nc(Cc3ccc(OC)cc3)[nH]c(=O)c12 | 5.66 |
| CCCc1nc2c(c(SC)nn2-c2c(Cl)cc(Cl)cc2Cl)c(=O)[nH]1 | 5.04 |
| CN(C)c1ccc(C(=C2C=CC(=[N+](C)C)C=C2)c2ccc(N(C)C)cc2)cc1.CN(C)c1ccc(C(=C2C=CC(=[N+](C)C)C=C2)c2ccc(N(C)C)cc2)cc1.CN=C1C=CC(=C(c2ccc(N(C)C)cc2)c2ccc(N(C)C)cc2)C=C1 | 6.23 |

Req: Requested field: pIC50. Item: CSc1nn(-c2c(Cl)cc(Cl)cc2Cl)c2nc(C(C)O)[nH]c(=O)c12 (stereo not drawn)
Resp: 4.57

###

target entity: Cyclin-dependent kinase 4/cyclin D1 (Homo sapiens)
assay name: Inhibition of Cyclin-dependent kinase 4-cyclin D1
Format: protein-complex assay
pIC50: −log10 of the molar value.
Threshold check on pIC50: at or above 6 gives condition met, strictly below gives condition not met.

Example results:
| compound smiles | cat |
| --- | --- |
| CCc1nn(-c2c(Cl)cc(Cl)cc2Cl)c2nc(Cc3cccc(OC)c3)[nH]c(=O)c12 | condition not met |
| CCc1nn(-c2c(Cl)cc(Cl)cc2Cl)c2nc(Cc3ccc(OC)c(C)c3)[nH]c(=O)c12 | condition not met |
| CSc1nn(-c2cccc(Cl)c2Cl)c2nc(C)[nH]c(=O)c12 | condition not met |

Req: Hello, I need to know if `CSCc1nc2c(c(SC)nn2-c2c(Cl)cc(Cl)cc2Cl)c(=O)[nH]1` has measured pIC50 not below 6. Thanks!
Resp: condition not met

Req: Moving on to the next compound: `CCc1nn(-c2c(Cl)cc(Cl)cc2Cl)c2nc(Cc3ccc(C)c(O)c3)[nH]c(=O)c12`
Resp: condition met

###

target entity: Cyclin-dependent kinase 4/cyclin D1 (Homo sapiens, UniProt P11802)
Sequence (P11802 whole entry): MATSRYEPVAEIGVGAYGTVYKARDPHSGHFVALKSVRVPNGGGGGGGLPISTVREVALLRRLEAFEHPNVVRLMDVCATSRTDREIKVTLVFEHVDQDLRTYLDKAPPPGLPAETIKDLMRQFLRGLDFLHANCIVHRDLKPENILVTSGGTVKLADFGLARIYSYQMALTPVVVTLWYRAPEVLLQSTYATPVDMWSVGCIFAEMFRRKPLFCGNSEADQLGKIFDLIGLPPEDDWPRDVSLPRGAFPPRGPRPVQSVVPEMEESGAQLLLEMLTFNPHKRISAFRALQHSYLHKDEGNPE
Sequence (P24385 whole entry, further chain): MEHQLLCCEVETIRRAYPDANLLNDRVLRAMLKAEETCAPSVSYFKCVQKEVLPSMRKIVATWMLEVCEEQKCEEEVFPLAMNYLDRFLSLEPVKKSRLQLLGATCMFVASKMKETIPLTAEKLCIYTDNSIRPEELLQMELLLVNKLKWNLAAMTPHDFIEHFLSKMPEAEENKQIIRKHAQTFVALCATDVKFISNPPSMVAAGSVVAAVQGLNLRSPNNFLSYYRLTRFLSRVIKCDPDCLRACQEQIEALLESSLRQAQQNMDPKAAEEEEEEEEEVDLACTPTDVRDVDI
assay name: Inhibition of Cyclin-dependent kinase 4-cyclin D1
Assay type: protein-complex assay
quantity name: pIC50
# reply with the number alone; pIC50 is -log10 of concentration in mol/L

| compound smiles | pIC50 |
| --- | --- |
| CCc1nn(-c2c(Cl)cc(Cl)cc2Cl)c2nc(CCc3ccccc3)[nH]c(=O)c12 | 5.15 |
| CCc1nn(-c2c(Cl)cc(Cl)cc2Cl)c2nc(CCSC)[nH]c(=O)c12 | 5.19 |
| CCc1nn(-c2c(Cl)cc(Cl)cc2Cl)c2nc(Cc3ccc(NC(=O)CN)cc3)nc(O)c12 | 6.34 |
| CCc1nn(-c2c(Cl)cc(Cl)cc2Cl)c2nc(Cc3ccc(NC(=O)CNC(=O)OC(C)(C)C)cc3)[nH]c(=O)c12 | 5.77 |
| Cc1nc2c(c(C)nn2-c2c(Cl)cc(Cl)cc2Cl)c(=O)[nH]1 | 5.46 |

Req: For the compound `CSc1nn(-c2ccc(C)cc2C)c2nc(C)[nH]c(=O)c12` , what pIC50 is on record?
Resp: 4.32

Req: Try the compound `CCc1nn(-c2c(Cl)cc(Cl)cc2Cl)c2nc(Cc3cc(O)cc(O)c3)[nH]c(=O)c12`
Resp: 7.30

###

IC50: recorded values
target entity: Cyclin-dependent kinase 1/cyclin B (Homo sapiens)
assay name: Inhibition of Cyclin-dependent kinase 1-cyclin B
Give your result in nM as a bare value.

Req: Fill in: IC50 of `CCc1nn(-c2c(Cl)cc(Cl)cc2Cl)c2nc(Cc3ccc(O)c(O)c3)[nH]c(=O)c12` is ___
Resp: 240

Req: Next compound: `CCc1nn(-c2c(Cl)cc(Cl)cc2Cl)c2nc(Cc3ccc(NC(C)=O)cc3)[nH]c(=O)c12`
Resp: 30

Req: Cool, now `CCc1nn(-c2c(Cl)cc(Cl)cc2Cl)c2nc(Cc3ccc(NC(=O)CN)cc3)nc(O)c12`
Resp: 70

Req: What would you report for `CN(C)c1ccc(C(=C2C=CC(=[N+](C)C)C=C2)c2ccc(N(C)C)cc2)cc1.CN(C)c1ccc(C(=C2C=CC(=[N+](C)C)C=C2)c2ccc(N(C)C)cc2)cc1.CN=C1C=CC(=C(c2ccc(N(C)C)cc2)c2ccc(N(C)C)cc2)C=C1` ?
Resp: 100

Req: Likewise for `CCc1nn(-c2c(Cl)cc(Cl)cc2Cl)c2nc(Cc3ccc(OC)c(C)c3)[nH]c(=O)c12` ?
Resp: 870

Req: Would you mind doing `CCc1nn(-c2c(Cl)cc(Cl)cc2Cl)c2nc(Cc3cccc(O)c3)[nH]c(=O)c12` as well?
Resp: 190

Req: Another compound to check: `CCc1nn(-c2c(Cl)cc(Cl)cc2Cl)c2nc(Cc3ccc(N)cc3)[nH]c(=O)c12`
Resp: 150

Req: Then this compound: `CCc1nn(-c2c(Cl)cc(Cl)cc2Cl)c2nc(Cc3cccc(OC)c3)[nH]c(=O)c12`
Resp: 410

Req: Now the same for `CCc1nn(-c2c(Cl)cc(Cl)cc2Cl)c2nc(Cc3ccc(OC)c(O)c3)[nH]c(=O)c12`
Resp: 200

Req: Moving on to the next compound: `CCc1nn(-c2c(Cl)cc(Cl)cc2Cl)c2nc(Cc3ccc(O)cc3)[nH]c(=O)c12`
Resp: 100

###

target entity: Cyclin-dependent kinase 1/cyclin B (Homo sapiens, UniProt P06493)
assay name: Inhibition of Cyclin-dependent kinase 1-cyclin B
quantity name: pIC50
Note on pIC50: it is the negative log10 of concentration, concentration in mol/L.

The following molecules have reported results that may help.
| compound smiles | pIC50 |
| --- | --- |
| CCc1nn(-c2c(Cl)cc(Cl)cc2Cl)c2nc(Cc3cccc(N)c3)[nH]c(=O)c12 | 6.57 |
| CCc1nn(-c2c(Cl)cc(Cl)cc2Cl)c2nc(Cc3ccc(O)c(OC)c3)[nH]c(=O)c12 | 6.07 |

Req: Would you kindly share the measured pIC50 for `CCc1nn(-c2c(Cl)cc(Cl)cc2Cl)c2nc(Cc3cccnc3)[nH]c(=O)c12` ?
Resp: 6.66

Req: Repeat for the following molecule: `CSc1nn(-c2c(Cl)cc(Cl)cc2Cl)c2nc(C)[nH]c(=O)c12`
Resp: 5.21

Req: // next record `CCc1nn(-c2c(Cl)cc(Cl)cc2Cl)c2nc(Cc3ccccc3)[nH]c(=O)c12`
Resp: 6.59

Req: Now the same for `CCc1nn(-c2c(Cl)cc(Cl)cc2Cl)c2nc(Cc3ccc(OC)cc3)[nH]c(=O)c12`
Resp: 6.82

Req: Same thing, different molecule: `CCc1nn(-c2c(Cl)cc(Cl)cc2Cl)c2nc(Cc3ccncc3)[nH]c(=O)c12`
Resp: 6.31

Req: How about `CCc1nn(-c2c(Cl)cc(Cl)cc2Cl)c2nc(Cc3ccc(NC(=O)CNC(=O)OC(C)(C)C)cc3)[nH]c(=O)c12` ?
Resp: 6.74

Req: Subsequent entry: `CCc1nn(-c2c(Cl)cc(Cl)cc2Cl)c2nc(Cc3ccc(C)c(O)c3)[nH]c(=O)c12`
Resp: 6.28

###

target entity: Cyclin-dependent kinase 4/cyclin D1 (Homo sapiens, UniProt P11802)
assay name: Inhibition of Cyclin-dependent kinase 4-cyclin D1
Type: protein-complex assay
pIC50: −log10 of the molar value.
Listed here: items and their measured pIC50.

| compound smiles | test result |
| --- | --- |
| CNCc1nc(O)c2c(SC)nn(-c3c(Cl)cc(Cl)cc3Cl)c2n1 | < 4.24 |
| CCc1nn(-c2c(Cl)cc(Cl)cc2Cl)c2nc(C)nc(N)c12 | < 3.85 |
| CSc1nn(CCO)c2nc(C)[nH]c(=O)c12 | < 3.68 |
| CCCCc1nn(-c2c(Cl)cc(Cl)cc2Cl)c2nc(C)[nH]c(=O)c12 | < 5.19 |
| CCc1nn(-c2c(Cl)cc(Cl)cc2Cl)c2nc(C)n(C)c(=O)c12 | < 4.57 |

Req: Which pIC50 is reported for this compound? `Cc1nc2c(c(C#N)nn2-c2c(Cl)cc(Cl)cc2Cl)c(=O)[nH]1`
Resp: < 4.55

Req: Then this compound: `COc1ccccc1-n1nc(SC)c2c(=O)[nH]c(C)nc21`
Resp: < 4.08

Req: Next compound up: `CSc1nn(C(C)(C)C)c2nc(C)[nH]c(=O)c12`
Resp: < 4.00

Req: What do you get for `CCCCn1nc(SC)c2c(=O)[nH]c(C)nc21` ?
Resp: < 3.70

Req: Repeat with `CCc1nn(-c2c(Cl)cc(Cl)cc2Cl)c2nc(Cc3cccc(C)c3)[nH]c(=O)c12`
Resp: < 5.66

Req: Same question, `Cc1nc2c(c(CCO)nn2-c2c(Cl)cc(Cl)cc2Cl)c(=O)[nH]1` this time
Resp: < 3.85

Req: Entry to check: `CCc1nn(-c2c(Cl)cc(Cl)cc2Cl)c2nc(Cc3cccc(N)c3C)[nH]c(=O)c12`
Resp: < 5.66

Req: What do you have for `CSc1nn(Cc2ccccc2)c2nc(C)[nH]c(=O)c12` ?
Resp: < 3.82

Req: Same again, this time with `CCc1nn(-c2c(Cl)cc(Cl)cc2Cl)c2nc(Cc3ccccc3OC)[nH]c(=O)c12`
Resp: < 4.66
